Assay: melting temperature; fluorescence melt of hairpins on a sequencing array, two-state fit, raised by 9.35 °C to match UV melts
Conditions: sodium 0.088 M
Quantity Measured: Tm

[[record]]
seq = "GCACACGAAAGTGAGTGC ((((((....)))..)))"
quantity_measured = "Tm"
reported_measurement = "51.7 °C"

[[record]]
seq = "GTGAGCGAAAGCTAGCAC ((((((....)))..)))"
quantity_measured = "Tm"
reported_measurement = "40.4 °C"

[[record]]
seq = "GATCGTGGAAACGATC ((((((....))))))"
quantity_measured = "Tm"
reported_measurement = "61 °C"

[[record]]
seq = "CGCACGGAAACGTCTGCG ((((((....)))..)))"
quantity_measured = "Tm"
reported_measurement = "42.6 °C"

[[record]]
seq = "GTATGCGGAAACGTATAC ((((.((....)).))))"
quantity_measured = "Tm"
reported_measurement = "46.5 °C"

[[record]]
seq = "GGGTCGTCGAAAGACCCC (((..(((....))))))"
quantity_measured = "Tm"
reported_measurement = "52.6 °C"

[[record]]
seq = "GATCGTGGCCACGATC ((((((....))))))"
quantity_measured = "Tm"
reported_measurement = "62.5 °C"

[[record]]
seq = "GAGATGGGAAACCGTCTC ((((.((....)).))))"
quantity_measured = "Tm"
reported_measurement = "49.6 °C"

[[record]]
seq = "GCGAAGGGAAACCTTTGC ((.((((....)))).))"
quantity_measured = "Tm"
reported_measurement = "49.8 °C"

[[record]]
seq = "GGCCCAGGAAACCGGGCC (((((.(....).)))))"
quantity_measured = "Tm"
reported_measurement = "63.5 °C"

[[record]]
seq = "GATCGTGAGGACGATC ((((((....))))))"
quantity_measured = "Tm"
reported_measurement = "53.5 °C"

[[record]]
seq = "GCAGGGCGAAAGCTCAGC ((.(.((....)).).))"
quantity_measured = "Tm"
reported_measurement = "48.3 °C"


* * *

Below, each entry is listed alongside its reported Tm.
Assay: melting temperature; fluorescence melt of hairpins on a sequencing array, two-state fit, raised by 9.35 °C to match UV melts
Conditions: sodium 0.088 M
Quantity Measured: Tm (°C)

[[record]]
seq = "GATCATATAATGATC ((((((...))))))"
quantity_measured = "Tm"
unit = "°C"
reported_measurement = 49

[[record]]
seq = "GCCTTAGGAAACTGAGGC ((((.((....)).))))"
quantity_measured = "Tm"
unit = "°C"
reported_measurement = 49

[[record]]
seq = "GATTAGGGAAACCTAGTC ((.((((....)))).))"
quantity_measured = "Tm"
unit = "°C"
reported_measurement = 33.7

[[record]]
seq = "GGTAAGTCGAAAGACACC (((..(((....))))))"
quantity_measured = "Tm"
unit = "°C"
reported_measurement = 37.3

[[record]]
seq = "GATCGGGTTGCCGATC ((((((....))))))"
quantity_measured = "Tm"
unit = "°C"
reported_measurement = 57.7

[[record]]
seq = "GAATCGGGAAACCGACTC ((.((((....)))).))"
quantity_measured = "Tm"
unit = "°C"
reported_measurement = 35.1

[[record]]
seq = "GATCAAAAAATTGATC ((((((....))))))"
quantity_measured = "Tm"
unit = "°C"
reported_measurement = 32.4

[[record]]
seq = "GGAATCCGAAAGGACTCC (((.(((....))).)))"
quantity_measured = "Tm"
unit = "°C"
reported_measurement = 46.3

[[record]]
seq = "GAGCTGCGAAAGCAACTC (((.(((....))).)))"
quantity_measured = "Tm"
unit = "°C"
reported_measurement = 51.2

[[record]]
seq = "GTCATACGAAAGTAAGAC (((.(((....))).)))"
quantity_measured = "Tm"
unit = "°C"
reported_measurement = 43.5

[[record]]
seq = "GATCGGTCACCGATC ((((((...))))))"
quantity_measured = "Tm"
unit = "°C"
reported_measurement = 55.8

[[record]]
seq = "GTGACCGAAAGGTTCAC ((((((....))).)))"
quantity_measured = "Tm"
unit = "°C"
reported_measurement = 53

[[record]]
seq = "GCGTTTAAACGC ((((....))))"
quantity_measured = "Tm"
unit = "°C"
reported_measurement = 54.7

[[record]]
seq = "GCAAAGCGAAAGCCCTGC (((..((....))..)))"
quantity_measured = "Tm"
unit = "°C"
reported_measurement = 28.5

[[record]]
seq = "GGCCACCGAAAGGTCGCC (((.(((....))).)))"
quantity_measured = "Tm"
unit = "°C"
reported_measurement = 53.3

[[record]]
seq = "GACATGCGAAAGCAGTC (((.(((....))))))"
quantity_measured = "Tm"
unit = "°C"
reported_measurement = 51.9

[[record]]
seq = "GTAGACGAAAGTCCGTAC ((((((....)))..)))"
quantity_measured = "Tm"
unit = "°C"
reported_measurement = 21

[[record]]
seq = "GCAGAGAAATCTGC (((((....)))))"
quantity_measured = "Tm"
unit = "°C"
reported_measurement = 50.6

[[record]]
seq = "GCCGGGCGAAAGCCGTGC ((..(((....)))..))"
quantity_measured = "Tm"
unit = "°C"
reported_measurement = 50.2

[[record]]
seq = "GCGTAACGAAAGTTGCGC (((.(((....))).)))"
quantity_measured = "Tm"
unit = "°C"
reported_measurement = 63

[[record]]
seq = "GCTAGGCGAAAGCGTGGC ((.(.((....)).).))"
quantity_measured = "Tm"
unit = "°C"
reported_measurement = 49.8

[[record]]
seq = "GTTGATGGAAACATCAGC (.(((((....))))).)"
quantity_measured = "Tm"
unit = "°C"
reported_measurement = 46.5

[[record]]
seq = "GGTATCGAAAGATCACC ((((((....))).)))"
quantity_measured = "Tm"
unit = "°C"
reported_measurement = 35

[[record]]
seq = "GGTACCGAAAGGTCTACC ((((((....)))..)))"
quantity_measured = "Tm"
unit = "°C"
reported_measurement = 33.9

[[record]]
seq = "GTCACTTCGAAAGAAGAC (((..(((....))))))"
quantity_measured = "Tm"
unit = "°C"
reported_measurement = 26.7

[[record]]
seq = "GATCTATCAGTAGATC ((((((....))))))"
quantity_measured = "Tm"
unit = "°C"
reported_measurement = 40.4

[[record]]
seq = "GGGCGGGGAAACCCGTCC ((.((((....)))).))"
quantity_measured = "Tm"
unit = "°C"
reported_measurement = 65

[[record]]
seq = "GATCTATGCGTAGATC ((((((....))))))"
quantity_measured = "Tm"
unit = "°C"
reported_measurement = 48.2

[[record]]
seq = "GGTACCGGAAACGGTACC (((((((....)))))))"
quantity_measured = "Tm"
unit = "°C"
reported_measurement = 69

[[record]]
seq = "GCGTTTCGACGC ((((....))))"
quantity_measured = "Tm"
unit = "°C"
reported_measurement = 55.9

[[record]]
seq = "GCTTTCGAAAGAAACAGC ((((((....)))..)))"
quantity_measured = "Tm"
unit = "°C"
reported_measurement = 32.8

[[record]]
seq = "GCCCAAGGAAACTCGGGC ((((.((....)).))))"
quantity_measured = "Tm"
unit = "°C"
reported_measurement = 48.8

[[record]]
seq = "GACATCCGAAAGGAGTC (((.(((....))))))"
quantity_measured = "Tm"
unit = "°C"
reported_measurement = 45.4

[[record]]
seq = "GCATTGCGAAAGCATTGC (((.(((....))).)))"
quantity_measured = "Tm"
unit = "°C"
reported_measurement = 55.4

[[record]]
seq = "GCTCTACGAAAGTAAAGC (((.(((....))).)))"
quantity_measured = "Tm"
unit = "°C"
reported_measurement = 38.4

[[record]]
seq = "GTGTACGAAAGTAACCAC ((((((....)))..)))"
quantity_measured = "Tm"
unit = "°C"
reported_measurement = 32

[[record]]
seq = "GAGCCACGAAAGTGACTC (((.(((....))).)))"
quantity_measured = "Tm"
unit = "°C"
reported_measurement = 54.5

[[record]]
seq = "GATACGGGAAACTGTGTC ((.((.(....).)).))"
quantity_measured = "Tm"
unit = "°C"
reported_measurement = 33.6

[[record]]
seq = "GGATTTGCGAAAGCATCC (((..(((....))))))"
quantity_measured = "Tm"
unit = "°C"
reported_measurement = 38.9

[[record]]
seq = "GTGTAGGGAAACCCACAC ((((.((....)).))))"
quantity_measured = "Tm"
unit = "°C"
reported_measurement = 45.8

[[record]]
seq = "GAAATCCGAAAGGATTC (((.(((....))))))"
quantity_measured = "Tm"
unit = "°C"
reported_measurement = 46.4

[[record]]
seq = "GAGTAGGGAAACCTACTC (((((((....)))))))"
quantity_measured = "Tm"
unit = "°C"
reported_measurement = 57

[[record]]
seq = "GAAGTGAAAACTTC (((((....)))))"
quantity_measured = "Tm"
unit = "°C"
reported_measurement = 43.1

[[record]]
seq = "GTGTCACGAAAGTGGCAC (((.(((....))).)))"
quantity_measured = "Tm"
unit = "°C"
reported_measurement = 67.3

[[record]]
seq = "GCAGGTGGAAACACCCGC ((.((((....)))).))"
quantity_measured = "Tm"
unit = "°C"
reported_measurement = 50

[[record]]
seq = "GCTGGACGAAAGTCAAGC (((.(((....))).)))"
quantity_measured = "Tm"
unit = "°C"
reported_measurement = 58.7

[[record]]
seq = "GTAGCCGAAAGGCAGTAC ((((((....)))..)))"
quantity_measured = "Tm"
unit = "°C"
reported_measurement = 30.4

[[record]]
seq = "GCTTTGCGAAAGCATGGC ((..(((....)))..))"
quantity_measured = "Tm"
unit = "°C"
reported_measurement = 49.5

[[record]]
seq = "GGGCGGCGAAAGCCACCC (((.(((....))).)))"
quantity_measured = "Tm"
unit = "°C"
reported_measurement = 67.3

[[record]]
seq = "GTGCAAGCGAAAGCTCAC (((..(((....))))))"
quantity_measured = "Tm"
unit = "°C"
reported_measurement = 42.9

